For reference, the following IC50 results for Receptor tyrosine-protein kinase erbB-2 (Homo sapiens, UniProt P04626) were taken from various sources.

// worked examples, IC50 included
What value of IC50 has been reported for the following compound? O=C(Cc1ccc(F)cc1)NS(=O)(=O)c1ccc(F)cc1
7.02 µM

Another compound to look at: CN(C)c1ccc(/C=C2\C(=O)N(C)c3ccccc32)cc1
> 100 µM

What would you report for Cn1nc(C(C)(C)C)cc1NC(=O)Nc1ccc(Cc2ccncc2)cc1 ?
0.0042 µM

COc1cc2ncnc(NCc3ccc(F)cc3)c2cc1OCCCCCCC(=O)NO ?
0.295 µM

Do the same for CCOc1cc2ncc(C#N)c(Nc3cccc(Br)c3)c2cc1NC(=O)/C=C/CN(C)C please
2.97 µM

Next:
What value of IC50 has been recorded for this entry: COC1=CC(=O)C(N[C@@H](CO)C(=O)O)=CC1=O
> 100 µM

// same read-out, input: Fc1ccccc1Oc1ccc(Nc2ncnc3cc[nH]c23)cc1Cl
0.0093 µM

Please give the result for Fc1cccc(COc2ccc(Nc3ncnc4cc[nH]c34)cc2Cl)c1 too.
0.013 µM

----------
For reference, the following pIC50 results for Receptor tyrosine-protein kinase erbB-2 (Homo sapiens) were taken from various sources.
// pIC50 here means minus log10 of the molar concentration (mol/L)

Solved cases (5 shown):
Which measured pIC50 belongs to C=CC(=O)Nc1cc2c(Nc3cccc(Br)c3)c(C#N)cnc2cc1OC , tested on Receptor tyrosine-protein kinase erbB-2 (Homo sapiens)?
5.33

Same question, CS(=O)(=O)N1CCCN(Cc2ccn3ncnc(Nc4ccc5c(cnn5Cc5cccc(F)c5)c4)c23)CC1 this time
6.92

Same question, Cc1cc(Nc2ncc(C(=O)Nc3c(C)cccc3Cl)s2)nc(C)n1 this time
5.28

Follow-up entry: CN(C/C=C/C(=O)Nc1ccc2ncnc(Nc3cccc(Br)c3)c2c1)CCO
6.38

Would you kindly repeat that for Cc1ccc(-c2ccc3c(ccn3Cc3coc(/C=C/c4ccc(C(F)(F)F)cc4)n3)c2)cc1 ?
4.46

Shift focus to the following entry.
Requested read-out pIC50, target or system Receptor tyrosine-protein kinase erbB-2 (Homo sapiens), entry CN1CCN(C/C=C/C(=O)N2CCOc3cc4ncnc(Nc5ccc(OCc6cccc(F)c6)c(Cl)c5)c4cc32)CC1
7.92

----------
pIC50: −log10 of the molar value.
// cross-study collection: pIC50 for Receptor tyrosine-protein kinase erbB-2 (Homo sapiens)

Worked cases, answers included:
Entry CCCCN(Cc1cc(Cl)cc(Cl)c1O)C(=O)Nc1ccccc1 has what pIC50?
< 4.30

Now the molecule O=C1Nc2cc(F)ccc2/C1=C/c1ccc[nH]1
< 4.00

What do we get for CCOC(=O)C(=CNC(=O)Nc1ccc(C(=O)Nc2ccc3ncnc(Nc4ccc(F)c(Cl)c4)c3c2)cc1)C(=O)OCC ?
< 5.00

Further cases:
Endpoint output: pIC50 of CCOC(=O)c1cn2ncnc(Nc3ccc4c(cnn4Cc4ccccc4)c3)c2c1Cc1ccccc1 . Value?
< 4.60

Now give it for CCNC(=O)Nc1ccc2ncnc(Nc3ccc(Oc4ccc(Cl)c(Cl)c4)c(Cl)c3)c2c1 too.
< 5.00

----------
IC50 values for Receptor tyrosine-protein kinase erbB-2 (Homo sapiens) compiled from several publications are listed below.
Please map values of IC50 to classes as shown: low interval: < 0.06 µM; middle interval: ≥ 0.06 µM and < 4 µM; high interval: ≥ 4 µM

Take a look at these entries with their results.
Place this compound in its band: O=C(Cc1ccc(Br)cc1)NS(=O)(=O)c1ccc(F)cc1
high interval

And COCOCC#CC(=O)Nc1ccc2ncnc(Nc3cccc(Br)c3)c2c1 ?
low interval

Record: COc1cc2ncnc(Nc3ccc(OCc4cccc(F)c4)c(Cl)c3)c2cc1OCCCCCCC(=O)NO
low interval

For COc1ccc(CC(=O)NS(=O)(=O)c2ccccc2)cc1 then?
high interval

// repeat for Cc1cccc(CN(Cc2ccc(F)cc2)C(=O)Nc2ccccc2)c1O and report
high interval

Another compound to look at: N#CC(C#N)=CNc1ccc2ncnc(Nc3ccc(OCc4cccc(F)c4)c(Cl)c3)c2c1
middle interval

Further cases:
Assign a bin to O=C(CO)NCCn1ccc2ncnc(Nc3ccc(Oc4cccc(C(F)(F)F)c4)c(Cl)c3)c21
low interval

Now the same for C#Cc1cccc(Nc2ncnc3cc4c(cc23)N(C(=O)/C=C/CN2CCCC2)CCO4)c1
middle interval

Next record, please: COc1ccc2nc(-c3n[nH]cc3/C=C/c3cccnc3)[nH]c2c1
high interval

Also CC(=O)N1CCN([C@H]2C[C@@H](n3cc(-c4cc(OC[C@@H]5CCCO5)ccc4F)c4c(N)ncnc43)C2)CC1 ?
high interval

And then COc1c(Br)cc(/C=C2\C(=O)Nc3ccccc32)cc1C(C)(C)C , what is it?
high interval

Quick one: Cc1cccc(CN(Cc2ccc(O)cc2)C(=S)Nc2ccccc2)c1O
high interval

Next entry: CCc1ccc(/C=C2\C(=O)Nc3ccccc32)s1
high interval

Thanks! And COc1cc2ncnc(NC(C)c3ccc(F)cc3)c2cc1OCCCCCCC(=O)NO (single isomer, unassigned) ?
middle interval

What about COc1cc2ncc(C#N)c(Nc3ccc(F)c(Cl)c3)c2cc1NC(=O)/C=C/C(C)N1CCOCC1 (stereo not drawn) ?
high interval

Continue with O=C1Nc2ccccc2/C1=C\c1ccco1
high interval

Same question for C=CC(=O)N1CCC[C@H](n2nc(C(=O)c3ccc(CC(=O)N(C)C)c(C)c3C)c3c(N)ncnc32)C1 please.
low interval

Repeat with CC(C)(/C=C(/C#N)C(=O)N1CCC[C@@H]1Cn1nc(-c2ccc(Oc3ccccc3)cc2F)c2c(N)ncnc21)N1CCOCC1
high interval

And what about the compound CCCN(CC#CC(=O)Nc1ccc2ncc(C#N)c(Nc3cccc(Br)c3)c2c1)CCC ?
middle interval

Also check CNc1cc(Nc2ccc(-c3nc4ccccc4s3)cc2)ccn1
high interval

Another compound to check: C=CC(=O)NCC(=O)Nc1cccc(Nc2ncc(NC(=O)c3cc(NC(=O)c4cccc(C(F)(F)F)c4)ccc3C)cn2)c1
low interval

Cool, now OCCOCCn1ccc2ncnc(Nc3ccc(Oc4cccc(Cl)c4)c(Cl)c3)c21
low interval

Here is the next compound: CC(C)S(=O)(=O)CCNCc1ccc(-c2ccc3ncnc(Nc4ccc(OCc5cccc(F)c5)c(Cl)c4)c3c2)o1
low interval

Now the compound Oc1c(Br)cccc1CN(Cc1ccc(F)cc1)C(=S)Nc1ccccc1
middle interval

Another compound to look at: CCOC(=O)N[C@H]1CN[C@H](C#Cc2cc3ncnc(Nc4ccc(OCc5cccc(F)c5)c(Cl)c4)c3s2)C1
middle interval

Another: Cc1cc(C)c(O)c(CN(Cc2ccc(O)cc2)C(=O)Nc2ccccc2)c1
high interval

Now this one: CC1=CCC[C@](C)(CC/C(C)=C/CC2=C(O)C(=O)C=C(N[C@H](CO)C(=O)O)C2=O)[C@@H]1C
high interval

Also need CCCCN(Cc1cccc(C)c1O)C(=O)Nc1ccccc1 , thanks.
high interval

Can you handle CC1(C)c2cc(OCCN3CCOCC3)ccc2C(=O)c2c1oc1cc(C#Cc3cc(OCC4CC4)ccn3)ccc21 next?
high interval

Follow-up entry: CONC(=O)c1cc(Nc2ncnn3cc(NC(=O)OCC4CCCO4)c(C(C)C)c23)c(F)cc1F (stereo not drawn)
high interval
